Reported IC50 values for a set of compounds
molecular target: FGF receptor (FGFr); experiment: FGFr tyrosine kinase activity, poly E4Y / 32P-ATP phosphorylation assay; format: biochemical; conditions: Table 3, Formula II compounds; NI = no inhibition at 100 μg/mL
# number only, unit µM dropped from output

Cc1ccc(S(=O)(=O)Nc2ccc(N3CCN(S(=O)(=O)c4ccc(C)cc4)CC3)cc2NS(=O)(=O)c2ccc(C)cc2)cc1 [Compound 17e]: 21
Cc1ccc(S(=O)(=O)Nc2ccc(-n3cccn3)cc2NS(=O)(=O)c2ccc(C)cc2)cc1 [Compound 17a]: 64
Cc1ccc(S(=O)(=O)Nc2ccc(Oc3ccc(CC(=O)O)cc3)cc2NS(=O)(=O)c2ccc(C)cc2)cc1 [Compound 12aa]: 10.6
COc1ccc(Oc2ccc(NS(=O)(=O)c3ccccc3)c(NS(=O)(=O)c3ccccc3)c2)cc1 [Compound 12n]: 24

Prompt: Param request: IC50 | system FGF receptor (FGFr) | item COc1ccc(NS(=O)(=O)c2ccc(C)cc2)c(NS(=O)(=O)c2ccc(C)cc2)c1 [Compound 12v]
Completion: 145

Prompt: Please look at COc1ccc(Sc2ccc(NS(=O)(=O)c3ccc(C)cc3)c(NS(=O)(=O)c3ccc(C)cc3)c2)cc1 [Compound 12gg] and tell me its recorded IC50 on FGF receptor (FGFr).
Completion: 17

Prompt: Report value: IC50, system: FGF receptor (FGFr), compound: Cc1ccc(S(=O)(=O)Nc2ccc(OCC3CCCCC3)cc2NS(=O)(=O)c2ccc(C)cc2)cc1 [Compound 15f]
Completion: 91

Prompt: Give IC50 for Cc1ccc(S(=O)(=O)Nc2ccc(Oc3cccc(C(=O)O)c3)cc2NS(=O)(=O)c2ccc(C)cc2)cc1 [Compound 12x] tested on FGF receptor (FGFr).
Completion: 31

Prompt: # assay system FGF receptor (FGFr): give IC50 of Cc1ccc(S(=O)(=O)Nc2ccc(OCc3cccc(Cl)c3)cc2NS(=O)(=O)c2ccc(C)cc2)cc1 [Compound 15c]
Completion: 54

Prompt: Send back FGF receptor (FGFr) IC50 of COc1ccc(Oc2ccc(NS(=O)(=O)c3ccc(Oc4ccccc4)cc3)c(NS(=O)(=O)c3ccc(Oc4ccccc4)cc3)c2)cc1 [Compound 12e] only.
Completion: 46

Prompt: Name the recorded IC50 of Cc1ccc(S(=O)(=O)Nc2ccc(Oc3ccc4ccccc4c3)cc2NS(=O)(=O)c2ccc(C)cc2)cc1 [Compound 12u] , assay system FGF receptor (FGFr).
Completion: 38

Prompt: State the measured IC50 (FGF receptor (FGFr)) of COc1ccc(Oc2ccc(NS(=O)(=O)c3ccc(C)cc3)c(NS(=O)(=O)c3ccc(C)cc3)c2)cc1 [Compound 12p]
Completion: 26

Prompt: // output IC50; input COc1ccc(Oc2ccc(NS(=O)(=O)c3ccc(C(C)(C)C)cc3)c(NS(=O)(=O)c3ccc(C(C)(C)C)cc3)c2)cc1 [Compound 12o] ; system FGF receptor (FGFr)
Completion: 22

Prompt: Given CCCCS(=O)(=O)Nc1ccc(Oc2ccc(OC)cc2)cc1NS(=O)(=O)CCCC [Compound 12l] , report its IC50 on FGF receptor (FGFr).
Completion: 81

Prompt: State IC50 (FGF receptor (FGFr)) of COc1ccc(Oc2ccc(NS(=O)(=O)Cc3ccccc3)c(NS(=O)(=O)Cc3ccccc3)c2)cc1 [Compound 12g] .
Completion: 70
